# Target desc: purified ITK (Invitrogen PV3875) (Homo sapiens, UniProt Q08881)
# Construct: purchased Invitrogen PV3875
# Sequence (Q08881 1-620): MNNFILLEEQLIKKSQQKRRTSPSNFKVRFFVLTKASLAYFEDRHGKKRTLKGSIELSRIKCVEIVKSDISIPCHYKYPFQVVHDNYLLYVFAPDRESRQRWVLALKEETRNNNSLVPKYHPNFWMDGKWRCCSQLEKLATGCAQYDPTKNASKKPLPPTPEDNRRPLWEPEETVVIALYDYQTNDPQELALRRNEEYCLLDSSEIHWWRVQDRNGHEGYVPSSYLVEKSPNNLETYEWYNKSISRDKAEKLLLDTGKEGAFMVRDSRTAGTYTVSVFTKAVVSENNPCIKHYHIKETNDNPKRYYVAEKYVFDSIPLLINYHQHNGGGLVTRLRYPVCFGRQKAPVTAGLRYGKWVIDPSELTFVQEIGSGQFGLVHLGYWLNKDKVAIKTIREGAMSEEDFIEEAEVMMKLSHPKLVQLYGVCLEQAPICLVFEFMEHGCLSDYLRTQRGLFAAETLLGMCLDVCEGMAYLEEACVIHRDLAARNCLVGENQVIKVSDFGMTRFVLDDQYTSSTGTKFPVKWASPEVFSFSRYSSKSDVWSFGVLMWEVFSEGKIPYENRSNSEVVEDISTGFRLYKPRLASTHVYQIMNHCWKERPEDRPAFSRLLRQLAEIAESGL
# Experiment description: ITK peptide phosphorylation assay (Caliper LabChip or LCMS)
# Format: biochemical
# Condition details: Table 1, Examples 141-279
Measurement type: pKi
// pKi here means minus log10 of the molar concentration (mol/L)

Solved entries:
N#CCCn1cc(NC(=O)c2n[nH]c3cc(-c4cn[nH]c4)ccc23)cn1 : 8.32
O=C(Nc1cnn([C@H](CO)c2cscn2)c1)c1n[nH]c2cc(-c3cn[nH]c3)ccc12 : 8.21
CC(=O)N(C)CCC(c1ccccc1)n1cc(NC(=O)c2n[nH]c3ccccc23)cn1 (centres unmarked) [Example 265] : 7.62

Quick check: pKi of CNCCC(c1ccccc1)n1cc(NC(=O)c2n[nH]c3ccccc23)cn1 (centres unmarked) [Example 264] ? 7.26

I'd like to know its pKi. The compound in question is COc1cncc(-c2ccc3c(C(=O)Nc4cnn(CC5CCCCC5)c4)n[nH]c3c2)c1 7.12

Suppose we examine the compound COC1CCN(c2ccc3c(C(=O)Nc4cnn(Cc5cccc(C#N)c5)c4)n[nH]c3c2)C1 (centres unmarked) ; what pKi value has been reported? 6.34

Request the reported pKi associated with CN(C)CCC(c1ccccc1)n1cc(NC(=O)c2n[nH]c3cc(-c4cccnc4)ccc23)cn1 (centres unmarked) 8.11

Requested read-out: pKi. Entry: N#Cc1cccc(Cn2cc(NC(=O)c3n[nH]c4cc(C5CCNCC5)ccc34)cn2)c1 6.81
